biological target: hMC4-R (human) (UniProt P32245); test: cell-based or functional assay
Sequence (P32245 whole entry): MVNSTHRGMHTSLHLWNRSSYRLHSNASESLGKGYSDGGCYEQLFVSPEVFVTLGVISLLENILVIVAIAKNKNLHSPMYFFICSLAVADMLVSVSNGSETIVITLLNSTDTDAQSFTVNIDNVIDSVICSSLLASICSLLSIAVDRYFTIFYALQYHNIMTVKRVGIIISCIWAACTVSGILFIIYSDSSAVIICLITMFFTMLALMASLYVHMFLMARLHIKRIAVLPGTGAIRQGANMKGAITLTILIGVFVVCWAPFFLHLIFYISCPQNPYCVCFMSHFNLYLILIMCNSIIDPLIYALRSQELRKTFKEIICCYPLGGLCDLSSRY
Bridge positions count the residues as written; N and C are the ends. Square brackets hold non-standard residues; d marks the D form. 1Nal = N[C@@H](Cc1cccc2ccccc12)C(=O)O; d2Nal = N[C@H](Cc1ccc2ccccc2c1)C(=O)O; Nle = CCCC[C@H](N)C(=O)O; Ahx = NCCCCCC(=O)O; GABA = NCCCC(=O)O
// values below are reported cAMP Kb
# unit: pM | format: bare number

Completed entries (count: 2):
binder="Ac-[Nle]CH[d2Nal]RW[Ahx]C-NH2 (disulfide 2-8) [Ac-Nle-c(Cys-His-D-2-Nal-Arg-Trp-Ahx-Cys)-NH2]" unit_text=pM reported_value=967
binder="Ac-[Nle]CH[d2Nal]RW[GABA]C-NH2 (disulfide 2-8) [Ac-Nle-c(Cys-His-D-2-Nal-Arg-Trp-Gaba-Cys)-NH2]" unit_text=pM reported_value=782

Please turn your attention to the following entry.
Using the record for Ac-[Nle]C[dA]H[d2Nal]R[1Nal]C-NH2 (disulfide 2-8; SMILES CCCC[C@H](NC(C)=O)C(=O)N[C@H]1CSSC[C@@H](C(N)=O)NC(=O)[C@H](Cc2cccc3ccccc23)NC(=O)[C@H](CCCNC(=N)N)NC(=O)[C@@H](Cc2ccc3ccccc3c2)NC(=O)[C@H](Cc2c[nH]cn2)NC(=O)[C@@H](C)NC1=O) [Ac-Nle-c(Cys-D-Ala-His-D-2-Nal-Arg-1-Nal-Cys)-NH2] , report its cAMP Kb.
53600
